Assay info: APR_HepG2_MitoMass_1hr: Apredica 1-hour HepG2 Assay for Mitochondrial Mass (AID 2282674)
Condition summary: high-content imaging, actives raise or lower the signal
The source made the active and inactive calls. Rule for the calls: active = hit-call score of the fitted dose curve at least 0.9, where 1 is the maximum; inactive = score below 0.9.
Assign a class; possible classes are active, inactive

Prompt: Test call for this compound, please: CON=C(C(=O)OC)c1ccccc1CON=C(C)c1cccc(C(F)(F)F)c1
Completion: inactive

Prompt: Record lookup: outcome of this test for COP(=O)(OC)OC(Br)C(Cl)(Cl)Br (stereo not given) ?
Completion: inactive

Prompt: State the result this test recorded for CCOP(=O)(OCC)Oc1cc(C)nc(C(C)C)n1 .
Completion: inactive

Prompt: Dear colleague, could you share the recorded outcome for O=[N+]([O-])c1cc(C(F)(F)F)c(Cl)c([N+](=O)[O-])c1Nc1ncc(C(F)(F)F)cc1Cl when you have a moment?
Completion: active

Prompt: // param item: CN(C)[C@@H]1C(=O)C(C(N)=O)=C(O)[C@@]2(O)C(=O)C3=C(O)c4c(O)cccc4[C@@](C)(O)[C@H]3[C@H](O)[C@@H]12 ; yields the recorded call
Completion: inactive

Prompt: Could you check what this test reported for CCCOc1nn(C(=O)NS(=O)(=O)c2ccccc2C(=O)OC)c(=O)n1C ?
Completion: inactive

Prompt: Recorded call for CN(C)C(=O)Nc1cccc(C(F)(F)F)c1 ?
Completion: inactive

Prompt: Each compound tested received a call. Report the one for CCC(=O)Nc1ccc(Cl)c(Cl)c1 .
Completion: inactive

Prompt: Which outcome was assigned to CCC(CC)Nc1c([N+](=O)[O-])cc(C)c(C)c1[N+](=O)[O-] in this test?
Completion: inactive

Prompt: Hello, I am checking results. What call was entered for Cc1ccn2nc(S(=O)(=O)Nc3c(F)cccc3F)nc2n1 ?
Completion: inactive

Prompt: Which outcome was assigned to CCCOCC(=Nc1ccc(Cl)cc1C(F)(F)F)n1ccnc1 in this test?
Completion: inactive

Prompt: Given C=C(C)[C@H]1Cc2c(ccc3c2O[C@@H]2COc4cc(OC)c(OC)cc4[C@@H]2C3=O)O1 , state the outcome it received in this test.
Completion: inactive

Prompt: # fetch the recorded call for CSc1nnc(C(C)(C)C)c(=O)n1N here
Completion: inactive

Prompt: Tell me the recorded outcome of this test for COP(=O)(NC(C)=O)SC (stereo not given) .
Completion: inactive

Prompt: Lab log entry: CC(C)N(C(=O)SCC(Cl)=C(Cl)Cl)C(C)C — outcome as called in the assay?
Completion: inactive

Prompt: Call for entry Nc1nc(N)nc(NC2CC2)n1 :
Completion: inactive

Prompt: Hi team, can someone confirm the assay call for CNC(=O)Oc1cccc2c1OC(C)(C)O2 ?
Completion: inactive

Prompt: What was the test verdict on C#CC(C)(C)NC(=O)c1cc(Cl)cc(Cl)c1 ?
Completion: inactive

Prompt: // return assay outcome for CSc1nc(NC(C)C)nc(NC(C)C)n1
Completion: inactive

Prompt: Tell me the recorded outcome of this test for Cc1nn(-c2cc(NS(C)(=O)=O)c(Cl)cc2Cl)c(=O)n1C(F)F .
Completion: inactive

Prompt: Record request — test call for CCOP(=O)(SC(C)CC)N1CCSC1=O (stereo not given)
Completion: inactive

Prompt: Identify the outcome logged in this assay for the compound shown: CC(=NC#N)N(C)Cc1ccc(Cl)nc1
Completion: inactive

Prompt: Dear all, I need the recorded test outcome for CCOP(=S)(OCC)Oc1ccc2c(C)c(Cl)c(=O)oc2c1 , thank you.
Completion: inactive

Prompt: Answer briefly: the call reported for CCOP(=S)(OCC)SCCSCC in this assay.
Completion: inactive

Prompt: Could you check what this test reported for CN1COCN(Cc2cnc(Cl)s2)C1=N[N+](=O)[O-] ?
Completion: inactive
